# measurement-description: Cmax in mouse at 3 mg/kg, iv
# Type: ADME, organism-based
# Parameters: dose 3 mg/kg, route intravenous
# setup-conditions: in vivo
Lab note: compare Cmax with 4 µM, writing fulfilled if less and not fulfilled if equal or more.

INSERT INTO results (smiles_record, class_assignment) VALUES
  ('CCC[C@H](C)Nc1ncc2c(-c3ccc(CN4C5CCC4CC5)cc3)cn([C@H]3CC[C@H](O)CC3)c2n1', 'fulfilled'),
  ('CCC[C@H](C)Nc1ncc2c(-c3ccc(CNCCN(CC)CC)cc3)cn([C@H]3CC[C@H](O)CC3)c2n1', 'fulfilled'),
  ('CCC[C@H](C)Nc1ncc2c(-c3ccnc(N4CCNCC4)c3)cn([C@H]3CC[C@H](O)CC3)c2n1', 'fulfilled'),
  ('CCC[C@H](C)Nc1ncc2c(-c3ccc(CN4CCCN(C)CC4)cc3)cn([C@H]3CC[C@H](O)CC3)c2n1', 'not fulfilled'),
  ('CCC[C@H](C)Nc1ncc2c(-c3ccc(S(=O)(=O)N4CCN(C)CC4)cc3F)cn([C@H]3CC[C@H](O)CC3)c2n1', 'not fulfilled'),
  ('CCC[C@H](C)Nc1ncc2c(-c3cnn(C4CCNCC4)c3)cn([C@H]3CC[C@H](O)CC3)c2n1', 'not fulfilled'),
  ('CCC[C@H](C)Nc1ncc2c(-c3ccc(CN4CCOCC4)cc3)cn([C@H]3CC[C@H](O)CC3)c2n1', 'not fulfilled');
